Test system: Escherichia coli TOP10;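 also: peptides expressed intracellularly from a pBAD plasmid library in pooled LB shake-flask culture, induced with 0.3% L-arabinose, DNA abundance read by NGS, three biological replicates, DESeq2 with apeglm shrinkage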
EXPERIMENTAL PROTOCOL: shrunken log2 fold change of peptide-encoding DNA abundance (4.5 h post-induction vs induction); higher = less antimicrobial activity (less host growth inhibition)
COND: time post-induction: 4.5 h; library: site-saturation at positions 5, 18, 19, 20
QUANTITY NAME: shrunken log2 fold change

> print(dat)
           record.sequence           tested.system  recorded.measurement
1  RRIRYRPPRLPRPRPRPSILPRP  Escherichia coli TOP10                 -1.25
2  RRIRKRPPRLPRPRPRPSCRPRP  Escherichia coli TOP10                0.0107
3  RRIRDRPPRLPRPRPRPCAIPRP  Escherichia coli TOP10                 0.029
4  RRIRCRPPRLPRPRPRPGSAPRP  Escherichia coli TOP10                 0.148
5  RRIRYRPPRLPRPRPRPRSWPRP  Escherichia coli TOP10               -0.0913
6  RRIRFRPPRLPRPRPRPKTSPRP  Escherichia coli TOP10               -0.0999
7  RRIRVRPPRLPRPRPRPNPSPRP  Escherichia coli TOP10                0.0073
8  RRIRQRPPRLPRPRPRPIAQPRP  Escherichia coli TOP10                0.0718
